Examples of compounds with documented TGI follow.
# System: HL-60(TB) leukemia
# protocol_text: NCI tumour cell line growth inhibition, 48 h

Documented TGI of C1CCOC2(CCC3(CC2)OCCCCO3)OC1 : > 100 µM

Documented TGI of Cc1ccc2c(C)c3ccc4ccccc4c3c[n+]2c1 : > 100 µM

Documented TGI of NC(=O)NC(=O)c1cccc(NC(=O)CF)c1 : > 100 µM

Documented TGI of COc1cc(/C=C/C(=O)c2sc(NNC(C)=O)nc2C)ccc1O : > 100 µM

Documented TGI of CC(=O)Nc1ccc(/C=C/C(=O)c2sc(-c3nc(C)c(C(=O)/C=C/c4ccc(NC(C)=O)cc4)s3)nc2C)cc1 : > 100 µM

Continuing:
Documented TGI of CCc1nnc(-c2nsc3ccccc23)s1 : > 100 µM

Documented TGI of CCCOc1nc(SCCC)nc2c1cnn2-c1ccccc1 : > 100 µM

Documented TGI of O=C(O)CC1OCC=C2CN3CCC45C6=CC(=O)C(=O)C([N+](=O)[O-])=C6NC4C1C2CC35 (centres undefined) : > 100 µM

Documented TGI of O=C(Nc1nc(=S)c2c(ncn2CCO)[nH]1)c1ccccc1 : > 100 µM

Documented TGI of CS/C(=N\c1nccs1)NC(=O)c1cccc(Cl)c1 : > 100 µM

Documented TGI of S=C(Nc1cc(Cl)c(Cl)cc1Cl)SCc1ccccc1 : 50.4 µM

Documented TGI of C[C@@H](NC1CCC[C@H]1O)c1ccccc1 (some centres undefined) : > 100 µM

Documented TGI of O=C1/C(=C/c2ccccc2)CCC/C1=C\c1ccc(O)c(CN2CCCCC2)c1 : > 100 µM

Documented TGI of O=C(CCCSc1nc(-c2ccccc2)cc(-c2ccc(Cl)cc2)n1)NO : 9.26 µM

Documented TGI of CCCCCC[C@H]1C(=O)O[C@H](C)[C@H](NC(=O)c2cccc(NC=O)c2OC)C(=O)O[C@@H](C)[C@@H]1OC(=O)CC(C)C (tested in a mixture with another compound) : > 100 µM

Documented TGI of CC(C)CC(NC(=O)C(CCI)Cc1ccccc1)C(=O)Nc1ccccc1 (centres undefined) : 64.6 µM

Documented TGI of Cc1ccc(Nc2nc(NS(=O)(=O)c3cc(C(=O)Nc4ccc(Cl)cc4)c(Cl)cc3S)n[nH]2)cc1 : > 100 µM

Documented TGI of CCOP(=O)(OCC)C1=C(c2ccccc2)OC(N)=C(C#N)C1c1ccc(Cl)cc1 (centres undefined) : > 100 µM

Documented TGI of Nc1n[nH]c2ccc([C@@H]3Nc4ccc5[nH]ncc5c4[C@H]4C5C=CC(C5)[C@@H]34)cc12 (some centres undefined) : 4.39 µM

Documented TGI of C=C=C(Sc1ccccc1)C(C)(C)OC(C)=O : 81 µM

Documented TGI of CC1CCC(C(C)C)C(O[C@@H]2OC(=O)C[C@@H]2Sc2ccccc2)C1 (some centres undefined) : 43.6 µM

Documented TGI of c1ccc(P(CCP(CCP(c2ccccc2)c2ccccc2)c2ccccc2)CCP(c2ccccc2)c2ccccc2)cc1 (centres undefined) : 3.69 µM

Documented TGI of COc1ccc(-c2cc(=O)c3cc4c(cc3[nH]2)OCO4)cc1 : > 100 µM

Documented TGI of COC(=O)C1=C(O)c2cc3c(cc2[C@H](c2cc(OC)c(OC)c(OC)c2)C1C(=O)OC)OCO3 (some centres undefined) : > 100 µM
